Numbers sourced from PubChem BioAssay (NCI).

Tested on: A549 NSCLC
Experiment: NCI tumour cell line growth inhibition, 48 h; in the data active means GI50 below about 0.43 µM; inactive means the rest
The categories you may choose from are active, inactive

Per the records of this test, what outcome belongs to Cn1cc(-c2nc(-c3c[nH]c4ncccc34)cs2)c2cc(Cl)ccc21 ? inactive

New cases:
Per the records of this test, what outcome belongs to COc1cccc2c(Nc3ccc(C(=O)NCCNCCO)cc3)cc(-c3ccccc3)nc12 ? inactive

----------
System: NCI-H522 lung
Assay: NCI tumour cell line growth inhibition, 48 h
Reported TGI by item:

Bench note: what TGI did N#CC12CCC(O)C(CC1)C2=O (stereo not drawn) show? > 100 µM

Bench note: what TGI did CCOC(=O)c1nc2cc(F)c(F)cc2nc1NCc1cc(OC)c(OC)c(OC)c1 show? > 100 µM

With those in mind, consider the next compound.
Bench note: what TGI did CCC(C)C1=C(O)[N+]2([O-])Oc3ccc(-c4c(O)c(O)c(-c5ccc(O)cc5)c(OC(C)=O)c4OC(C)=O)cc3OC2(C(C)CC)C(=O)N1O (stereo not drawn) show? > 50 µM

----------
Tested on: HCT-116 colon
Experiment: NCI tumour cell line growth inhibition, 48 h
experimentalEndpoint: TGI (µM)
Answer in µM, number only, no unit symbol.

Bench note: what TGI did COC(=O)/N=[N+](\[O-])C(c1ccc(Cl)cc1)c1ccc(Cl)cc1 show? 95.3

Bench note: what TGI did N#Cc1cccc(Nc2ccccc2SSc2ccccc2Nc2cccc(C#N)c2)c1 show? 16.5

With those in mind, consider the next compound.
Bench note: what TGI did Cc1ccc([N+](=O)[O-])cc1S(=O)(=O)Nc1ccc(C2=NOC(c3ccccc3)C2)cc1 (stereo unspecified) show? 24.1

----------
Test system: KM12 colon
Experiment: NCI tumour cell line growth inhibition, 48 h
Reported TGI by item:

# annotated cases, reported TGI shown
Bench note: what TGI did CCOC(=O)CCN1C(=O)c2ccc(NC(=O)C(=O)O)cc2S1(=O)=O show? > 100 µM

Bench note: what TGI did O=C(O)C(Cc1ccccc1-c1ccccc1)C(=O)O show? > 100 µM

With those in mind, consider the next molecule.
Bench note: what TGI did O=C1c2cccnc2-c2nc(-c3ccccn3)cc3c2c1nc1ccccc13 show? 3.17 µM

----------
Test system: IGROV1 ovarian
Assay: NCI tumour cell line growth inhibition, 48 h
Reported GI50 by item:

# annotated cases, reported GI50 shown
Bench note: what GI50 did CCNCCNc1cc(-c2ccc(Cl)cc2)c(C#N)c2nc3ccccc3n12 show? 1680 nM

Bench note: what GI50 did COc1ccc(-c2nc3sccn3c2/C=C/C(=O)c2cc(OC)c(OC)c(OC)c2)cc1OC show? 1200 nM

New cases:
Bench note: what GI50 did COc1ccc(/C=C/C(=O)/C=C(/C=C/c2ccc(OC)c(OC)c2)OB(F)F)cc1OC show? 486 nM

Bench note: what GI50 did C[C@@H](Oc1cc(-c2cnn(C3CCNCC3)c2)cnc1N)c1c(Cl)ccc(F)c1Cl show? 2170 nM

Bench note: what GI50 did COc1cc(/C=C2\CC(C)CC3C2=NN(c2ccccc2)C3c2cc(OC)c(OC)c(OC)c2)cc(OC)c1OC (centres undefined) show? 20200 nM

Bench note: what GI50 did CCOC(=O)Oc1c(OC)cc(C(=O)c2ccc(OC)c(OC(=O)CCl)c2OC)cc1OC show? 3360 nM

Bench note: what GI50 did COc1ccc(C(=O)c2cc(OC)c(OC)c(OC)c2)cc1/C=C/C(=O)c1ccc(O)cc1 show? 9940 nM

Bench note: what GI50 did COC(=O)c1ccc(-c2nc3cc(F)c(F)cc3nc2C#N)cc1 show? 9620 nM

Bench note: what GI50 did NCCCn1c2c(c3ccccc3c1=O)C(=O)c1cc3c(cc1-2)OCO3 show? 374 nM

----------
Tested on: HCT-15 colon
Assay: NCI tumour cell line growth inhibition, 48 h; in the data active = GI50 below about 0.43 µM; inactive = the rest
The categories you may choose from are active, inactive

Here are 2 compounds together with their reported answers.
Per the records of this test, what outcome belongs to O=P(Oc1ccccc1)(Oc1ccccc1)C(O)c1ccccc1 (stereo not drawn) ? inactive

Per the records of this test, what outcome belongs to NCCCn1c2c(c3ccccc3c1=O)C(=O)c1cc3c(cc1-2)OCO3 ? active

From here, focus on the item given below.
Per the records of this test, what outcome belongs to CS(=O)(=O)c1ccc(Oc2nccc(-c3c(-c4ccc(F)cc4)ncn3C3CCNCC3)n2)cc1 ? inactive

----------
Tested on: M14 melanoma
Test: NCI tumour cell line growth inhibition, 48 h
Reported GI50 by item:

# annotated cases, reported GI50 shown
Bench note: what GI50 did O=C(Nc1ncc([N+](=O)[O-])s1)c1cccc([N+](=O)[O-])c1 show? 3850 nM

Bench note: what GI50 did COc1cc(-c2cc(C(=O)Nc3nc4ccccc4s3)nc3cc(-c4ccccc4)nn23)cc(OC)c1OC show? 2390 nM

New cases:
Bench note: what GI50 did CCNCCNc1cc(-c2ccc(Cl)cc2)c(C#N)c2nc3ccccc3n12 show? 1880 nM

Bench note: what GI50 did N.N.NCCCCN.O=C([O-])CC(=O)[O-].O=C([O-])CC(=O)[O-].[Pt+4].[Pt+4] show? > 100000 nM

----------
Reported TGI by item:
Tested on: HS 578T breast
Assay: NCI tumour cell line growth inhibition, 48 h

# annotated cases, reported TGI shown
Bench note: what TGI did Clc1ccc(N2COOC3(OOC2)C2CC4CC(C2)CC3C4)cc1 show? > 100 µM

Bench note: what TGI did Cc1cccc(/C=N/NC(=S)NC2CCCCC2)n1 show? > 100 µM

Bench note: what TGI did O=C(Nc1cccc(C2=NCCN2)c1)c1ccc(OCCCOc2ccc(C(=O)Nc3cccc(C4=NCCN4)c3)cc2)cc1 show? 6.6 µM

With those in mind, consider the next compound.
Bench note: what TGI did O=C(O)CSCC(=O)c1ccccc1 show? > 100 µM

----------
Tested on: PC-3 prostate
Assay: NCI tumour cell line growth inhibition, 48 h
experimentalEndpoint: TGI

# annotated cases, reported TGI shown
Form entry - test system: PC-3 prostate; read-out: TGI; molecule: COc1ccc(/C=C\c2cc(OC)c(OC)c(OC)c2)cc1NC(=O)[C@@H](N)CO > 100 µM

Form entry - test system: PC-3 prostate; read-out: TGI; molecule: Cc1ccc(C)c(-n2c(-c3ccc(Br)cc3)csc2=NC(=O)c2ccccc2F)c1 > 100 µM

With those in mind, consider the next molecule.
Form entry - test system: PC-3 prostate; read-out: TGI; molecule: CCOC(=O)Nn1cnnc1Cc1ccccc1 > 100 µM

----------
System: CCRF-CEM leukemia
Experiment: NCI tumour cell line growth inhibition, 48 h
experimentalEndpoint: TGI

# annotated cases, reported TGI shown
Bench note: what TGI did C=CCN1C(=O)/C(=C/c2ccccc2)N=C1SC/C=C/C show? > 100 µM

Bench note: what TGI did O=C1C2c3[nH]c4ccccc4c3C3CCSCC3C2C(=O)N1c1ccccc1 (configuration not stated) show? > 100 µM

Bench note: what TGI did O=[N+]([O-])/C(C(Cl)=C(Cl)Cl)=C(\Nc1cccc2cccnc12)Sc1ccccc1 show? > 100 µM

Bench note: what TGI did Cn1cc(-c2nc(-c3c[nH]c4ncccc34)cs2)c2cc(Cl)ccc21 show? > 100 µM

New cases:
Bench note: what TGI did COC(=O)C1=C(C(=O)OC)C2(c3ccccc3)c3ccccc3C(=O)C1N2C1CCCCC1 (configuration not stated) show? > 100 µM

Bench note: what TGI did O=P(Oc1ccccc1)(Oc1ccccc1)C(O)c1ccccc1 (configuration not stated) show? > 100 µM

Bench note: what TGI did O=c1oc2ccccc2cc1-c1ccc([N+](=O)[O-])cc1 show? > 100 µM

Bench note: what TGI did Cc1cc(Cl)ccc1NC(=O)/C(Cc1nc2ccc(C(=O)c3ccccc3)cc2[nH]c1=O)=N/NC(=O)c1ccncc1 show? > 100 µM

Bench note: what TGI did CCOC(=O)c1[nH]c2cccc3c2c1CC(Br)C3=O (configuration not stated) show? > 100 µM

Bench note: what TGI did CCN(Cc1ccc(F)cc1F)c1ccc(CO)c(Cl)c1 show? > 88.5 µM

Bench note: what TGI did CC(C)/C(Cl)=N/OC(NC(=O)Nc1ccc(Cl)c(Cl)c1)(C(F)(F)F)C(F)(F)F show? 5.71 µM

Bench note: what TGI did COC(=O)[C@H](C)[C@H]1CC[C@@](C)([C@H]2CC3C(C)(C)[C@H]4CCC(C)=C[C@H]4C[C@@]3(C)O2)OO1 (some centres not stated) show? 16.3 µM

----------
Reported TGI by item:
System: 786-0 renal
Experiment: NCI tumour cell line growth inhibition, 48 h

# annotated cases, reported TGI shown
Bench note: what TGI did Cc1ccc(C)c(-n2c(-c3ccc(Br)cc3)csc2=NC(=O)c2ccccc2F)c1 show? > 100 µM

Bench note: what TGI did CN(C)CCN1N=Nc2cccc3cccc1c23 show? > 100 µM

New cases:
Bench note: what TGI did CC(=O)C(C(=N)C#N)C(=O)Nc1ccccc1 (stereo unspecified) show? > 100 µM

Bench note: what TGI did O=C(O)C(Cc1ccccc1-c1ccccc1)C(=O)O show? > 100 µM

Bench note: what TGI did CC(C)C(=O)CC(Sc1ccc(N)cc1)c1ccccc1 (stereo unspecified) show? > 100 µM

Bench note: what TGI did COc1nc(N)nc2c1n(C)c[n+]2C show? > 100 µM
